- assay: Calcium Kd of indicator in solution (Table 1)
- Assay type: binding
- stated_conditions: 37° C.; 130 mM KCl, 20 mM NaCl, 1 mM free MgCl2, MOPS, pH 7.05 (footnote a)
measured_property: Kd (nM)
Report as a plain number; the unit nM is understood.

Q. Return reported Kd; argument: O=C(O)CN1CCN(C(=O)CCc2ccc(N(CC(=O)O)CC(=O)O)c(OCCOc3cc4cc(-c5ncc(C(=O)O)o5)oc4cc3N(CC(=O)O)CC(=O)O)c2)CC1
A. 209

====

- assay: Magnesium Kd of indicator (Table 1)
- Type: binding
- stated_conditions: 20° C.
measured_property: pKd
As a rule, pKd stands for the negative log10 of the concentration, concentration in M.

Q. Return reported pKd; argument: O=C(O)CN1CCN(C(=O)CCc2ccc(N(CC(=O)O)CC(=O)O)c(OCCOc3cc4cc(-c5ncc(C(=O)O)o5)oc4cc3N(CC(=O)O)CC(=O)O)c2)CC1 [PE3]
A. 2.37
